- assay_target: Prostaglandin G/H synthase 1 (Ovis aries)
- Sequence (P05979 whole entry): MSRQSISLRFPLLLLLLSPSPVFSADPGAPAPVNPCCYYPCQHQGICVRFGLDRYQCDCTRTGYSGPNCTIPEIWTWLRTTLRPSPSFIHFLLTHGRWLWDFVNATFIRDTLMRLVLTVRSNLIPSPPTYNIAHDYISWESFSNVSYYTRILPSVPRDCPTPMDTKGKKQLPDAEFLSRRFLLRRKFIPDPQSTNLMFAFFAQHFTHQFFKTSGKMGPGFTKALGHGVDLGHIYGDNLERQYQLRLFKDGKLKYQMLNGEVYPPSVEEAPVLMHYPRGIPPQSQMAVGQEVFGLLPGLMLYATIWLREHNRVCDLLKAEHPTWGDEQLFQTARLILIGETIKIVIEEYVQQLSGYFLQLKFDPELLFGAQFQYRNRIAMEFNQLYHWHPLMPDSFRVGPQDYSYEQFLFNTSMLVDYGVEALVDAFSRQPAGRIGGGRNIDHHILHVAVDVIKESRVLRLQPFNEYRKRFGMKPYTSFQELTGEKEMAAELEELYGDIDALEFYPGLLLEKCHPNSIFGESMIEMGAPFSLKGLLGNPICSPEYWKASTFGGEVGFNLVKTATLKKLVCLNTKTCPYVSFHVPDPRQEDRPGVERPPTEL
Simple rule here: IC50 less than 1000 nM is MET, otherwise NOT MET.

[[record]]
compound = "CCOc1cc(OCC)cc(-c2ccc(C(C)C(=O)O)cc2F)c1 (stereo not given)"
discrete_label = "NOT MET"

[[record]]
compound = "CCc1cccc(-c2ccc(C(C)C(=O)O)cc2)c1 (stereo not given)"
discrete_label = "NOT MET"

[[record]]
compound = "CCOc1cccc(-c2ccc(C(C)C(=O)O)cc2F)c1 (stereo not given)"
discrete_label = "MET"

[[record]]
compound = "CC(C(=O)O)c1ccc(-c2ccc3[nH]ccc3c2)cc1 (stereo not given)"
discrete_label = "MET"

[[record]]
compound = "C=Cc1cccc(-c2ccc(C(C)C(=O)O)cc2)c1 (stereo not given)"
discrete_label = "NOT MET"

[[record]]
compound = "COc1cc(OC)cc(-c2ccc(C(C)C(=O)O)cc2F)c1 (stereo not given)"
discrete_label = "MET"

[[record]]
compound = "C=CCc1cccc(-c2ccc(C(C)C(=O)O)cc2)c1 (stereo not given)"
discrete_label = "NOT MET"

[[record]]
compound = "CCSc1cccc(-c2ccc(C(C)C(=O)O)cc2)c1 (stereo not given)"
discrete_label = "NOT MET"

[[record]]
compound = "CCOc1cc(OCC)cc(-c2ccc(C(C)C(=O)O)cc2)c1 (stereo not given)"
discrete_label = "NOT MET"


Read the next record carefully.
stdin: Identify whether the compound C=Cc1cncc(-c2ccc(C(C)C(=O)O)cc2)c1 (stereo not given) records IC50 below 1000 nM.
stdout: MET

###

- Species: Ovis aries
- assay_overview: Selectivity ratio of COX-1 to that of COX-2
endpoint_label: Selectivity
Lab note: write the figure by itself, no unit.

[[record]]
compound = "C=CCc1cccc(-c2ccc(C(C)C(=O)O)cc2)c1 (centres undefined)"
endpoint_label = "Selectivity"
assay_value = 9.3

[[record]]
compound = "C/C=C/c1cncc(-c2ccc(C(C)C(=O)O)cc2)c1 (centres undefined)"
endpoint_label = "Selectivity"
assay_value = 23

[[record]]
compound = "CC(C(=O)O)c1ccc(-c2ccc3[nH]ccc3c2)cc1 (centres undefined)"
endpoint_label = "Selectivity"
assay_value = 0.53

[[record]]
compound = "COc1cc(OC)cc(-c2ccc(C(C)C(=O)O)cc2F)c1 (centres undefined)"
endpoint_label = "Selectivity"
assay_value = 0.9

[[record]]
compound = "Cc1cc(C)cc(-c2ccc(C(C)C(=O)O)cc2F)c1 (centres undefined)"
endpoint_label = "Selectivity"
assay_value = 0.79

[[record]]
compound = "CCOc1cc(OCC)cc(-c2ccc(C(C)C(=O)O)cc2)c1 (centres undefined)"
endpoint_label = "Selectivity"
assay_value = 78

[[record]]
compound = "C=Cc1cccc(-c2ccc(C(C)C(=O)O)cc2)c1 (centres undefined)"
endpoint_label = "Selectivity"
assay_value = 1.8

[[record]]
compound = "CCOc1cccc(-c2ccc(C(C)C(=O)O)cc2F)c1 (centres undefined)"
endpoint_label = "Selectivity"
assay_value = 1

[[record]]
compound = "C=Cc1cncc(-c2ccc(C(C)C(=O)O)cc2)c1 (centres undefined)"
endpoint_label = "Selectivity"
assay_value = 1

[[record]]
compound = "Cc1cc2cc(-c3ccc(C(C)C(=O)O)cc3)ccc2[nH]1 (centres undefined)"
endpoint_label = "Selectivity"
assay_value = 45


The measured Selectivity associated with CCc1cccc(-c2ccc(C(C)C(=O)O)cc2)c1 (centres undefined) reads 2.4

The measured Selectivity associated with CCOc1cc(OCC)cc(-c2ccc(C(C)C(=O)O)cc2F)c1 (centres undefined) reads 77

The measured Selectivity associated with CCSc1cccc(-c2ccc(C(C)C(=O)O)cc2)c1 (centres undefined) reads 9.4

All values here come from ChEMBL document CHEMBL1131913.
